Sourced from ChEMBL document CHEMBL1134286

tested on: Staphylococcus aureus; assay: Minimum inhibitory concentration against Staphylococcus aureus ATCC 6538PEry-S; type: functional; conditions: ATCC 6538P
Entries and their measured MIC follow.
observation.type: MIC

1) CC[C@H]1OC(=O)[C@H](C)C(=O)[C@H](C)[C@@H](O[C@@H]2O[C@H](C)C[C@H](N(C)C)[C@H]2O)[C@](C)(OC/C=C/c2cnc3ccccc3c2)C[C@@H](C)C(=O)[C@H](C)[C@@H](O)[C@]1(C)O 0.2 µg/mL
2) CC[C@H]1OC(=O)[C@H](C)C(=O)[C@H](C)[C@@H](O[C@@H]2O[C@H](C)C[C@H](N(C)C)[C@H]2O)[C@](C)(OC/C=C/c2cnc3sccc3c2)C[C@@H](C)C(=O)[C@H](C)[C@H]2NC(=O)O[C@@]21C 0.05 µg/mL

----------
Measured MIC, listed per entry.
test: Minimum inhibitory concentration against Streptococcus pneumoniae 5737 MLSB; assay type: functional
observation.type: MIC (µg/mL)

molecule	unit.of.measure	value.observed
CC[C@H]1OC(=O)[C@H](C)C(=O)[C@H](C)[C@@H](O[C@@H]2O[C@H](C)C[C@H](N(C)C)[C@H]2O)[C@](C)(OCC2CC2c2cnc3ccccc3c2)C[C@@H](C)C(=O)[C@H](C)[C@H]2NC(=O)O[C@@]21C (some centres undefined)	µg/mL	32
CC[C@H]1OC(=O)[C@H](C)C(=O)[C@H](C)[C@@H](O[C@@H]2O[C@H](C)C[C@H](N(C)C)[C@H]2O)[C@](C)(OC/C=C/c2cnc3ccccc3c2)C[C@@H](C)C(=O)[C@H](C)[C@@H](O)[C@]1(C)O	µg/mL	16
CC[C@H]1OC(=O)[C@H](C)C(=O)[C@H](C)[C@@H](O[C@@H]2O[C@H](C)C[C@H](N(C)C)[C@H]2O)[C@](C)(OC/C=C/c2cnc3ccsc3c2)C[C@@H](C)C(=O)[C@H](C)[C@H]2NC(=O)O[C@@]21C	µg/mL	0.5

----------
test: Minimum inhibitory concentration against Streptococcus pneumoniae 5737 MLSB; type: functional
observation.type: MIC (µg/mL)

1. CC[C@H]1OC(=O)[C@H](C)C(=O)[C@H](C)[C@@H](O[C@@H]2O[C@H](C)C[C@H](N(C)C)[C@H]2O)[C@](C)(OC/C=C/c2ccc3[nH]cnc3c2)C[C@@H](C)C(=O)[C@H](C)[C@H]2NC(=O)O[C@@]21C 8
2. CC[C@H]1OC(=O)[C@H](C)C(=O)[C@H](C)[C@@H](O[C@@H]2O[C@H](C)C[C@H](N(C)C)[C@H]2O)[C@](C)(OC/C=C/c2cnc3ccccc3c2)C[C@@H](C)C(=O)[C@H](C)[C@H]2N(N)C(=O)O[C@]12C 64
3. CC[C@H]1OC(=O)[C@H](C)C(=O)[C@H](C)[C@@H](O[C@@H]2O[C@H](C)C[C@H](N(C)C)[C@H]2O)[C@](C)(OC/C=C/c2ccccc2)C[C@@H](C)C(=O)[C@H](C)[C@@H](O)[C@]1(C)O 64

----------
assay: Minimum inhibitory concentration against Streptococcus pyogenes 930MLSB; type: functional
observation.type: MIC (µg/mL)

1. CC[C@H]1OC(=O)[C@H](C)C(=O)[C@H](C)[C@@H](O[C@@H]2O[C@H](C)C[C@H](N(C)C)[C@H]2O)[C@](C)(OC/C=C/c2cccc3cnccc23)C[C@@H](C)C(=O)[C@H](C)[C@H]2NC(=O)O[C@@]21C 32
2. CC[C@H]1OC(=O)[C@H](C)C(=O)[C@H](C)[C@@H](O[C@@H]2O[C@H](C)C[C@H](N(C)C)[C@H]2O)[C@](C)(OC/C=C/c2ccc3ccccc3c2)C[C@@H](C)C(=O)[C@H](C)[C@H]2NC(=O)O[C@@]21C 16
3. CC[C@H]1OC(=O)[C@H](C)C(=O)[C@H](C)[C@@H](O[C@@H]2O[C@H](C)C[C@H](N(C)C)[C@H]2O)[C@](C)(OC/C=C/c2cnc3ccccc3c2)C[C@@H](C)C(=O)[C@H](C)[C@H]2N(OC)C(=O)O[C@]12C 64
4. CC[C@H]1OC(=O)[C@H](C)C(=O)[C@H](C)[C@@H](O[C@@H]2O[C@H](C)C[C@H](N(C)C)[C@H]2O)[C@](C)(OC/C=C/c2cnc3ccccc3c2)C[C@@H](C)C(=O)[C@H](C)[C@H]2N(C)C(=O)O[C@]12C 4

----------
assay: Minimum inhibitory concentration against Streptococcus pneumoniae 5737 MLSB; format: functional
Reported MIC values for a set of compounds
observation.type: MIC

1) C=CCO[C@]1(C)C[C@@H](C)C(=O)[C@H](C)[C@H]2N(CCN(C)C)C(=O)O[C@]2(C)[C@@H](CC)OC(=O)[C@H](C)C(=O)[C@H](C)[C@H]1O[C@@H]1O[C@H](C)C[C@H](N(C)C)[C@H]1O > 128 µg/mL
2) CC[C@H]1OC(=O)[C@H](C)C(=O)[C@H](C)[C@@H](O[C@@H]2O[C@H](C)C[C@H](N(C)C)[C@H]2O)[C@](C)(OCCNCc2ccccc2)C[C@@H](C)C(=O)[C@H](C)[C@@H](O)[C@]1(C)O > 64 µg/mL
3) CC[C@H]1OC(=O)[C@H](C)C(=O)[C@H](C)[C@@H](O[C@@H]2O[C@H](C)C[C@H](N(C)C)[C@H]2O)[C@](C)(OC/C=C/c2cnc3ccccc3c2)C[C@@H](C)C(=O)[C@H](C)[C@H]2N(OC)C(=O)O[C@]12C 64 µg/mL
4) C=CCO[C@]1(C)C[C@@H](C)C2=NCCN3C(=O)O[C@](C)([C@@H](CC)OC(=O)[C@H](C)C(=O)[C@H](C)[C@H]1O[C@@H]1O[C@H](C)C[C@H](N(C)C)[C@H]1O)[C@H]3[C@H]2C > 128 µg/mL

----------
MIC reference
test system: Staphylococcus aureus; experiment: Minimum inhibitory concentration against Staphylococcus aureus ATCC 6538PEry-S; format: functional; conditions: ATCC 6538P
observation.type: MIC

1) CC[C@H]1OC(=O)[C@H](C)C(=O)[C@H](C)[C@@H](O[C@@H]2O[C@H](C)C[C@H](N(C)C)[C@H]2O)[C@](C)(OC/C=C/c2cnc3ccccc3c2)C[C@@H](C)C(=O)[C@H](C)[C@H]2N(OC)C(=O)O[C@]12C 0.1 µg/mL
2) CC[C@H]1OC(=O)[C@H](C)C(=O)[C@H](C)[C@@H](O[C@@H]2O[C@H](C)C[C@H](N(C)C)[C@H]2O)[C@](C)(OCCCc2ccccc2)C[C@@H](C)C(=O)[C@H](C)[C@@H](O)[C@]1(C)O 6.2 µg/mL
3) CC[C@H]1OC(=O)[C@H](C)C(=O)[C@H](C)[C@@H](O[C@@H]2O[C@H](C)C[C@H](N(C)C)[C@H]2O)[C@](C)(OCCNCc2ccccc2)C[C@@H](C)C(=O)[C@H](C)[C@@H](O)[C@]1(C)O 3.1 µg/mL
4) CC[C@H]1OC(=O)[C@H](C)C(=O)[C@H](C)[C@@H](O[C@@H]2O[C@H](C)C[C@H](N(C)C)[C@H]2O)[C@](C)(OC/C=C/c2cccc3ncccc23)C[C@@H](C)C(=O)[C@H](C)[C@H]2NC(=O)O[C@@]21C 0.1 µg/mL
5) CC[C@H]1OC(=O)[C@H](C)C(=O)[C@H](C)[C@@H](O[C@@H]2O[C@H](C)C[C@H](N(C)C)[C@H]2O)[C@](C)(OC/C=C/c2ccc(Cl)cc2)C[C@@H](C)C(=O)[C@H](C)[C@@H](O)[C@]1(C)O 1.56 µg/mL

----------
Listing of recorded MIC by entry.
experiment: Minimum inhibitory concentration against Streptococcus pneumoniae 5737 MLSB; type: functional
observation.type: MIC (µg/mL)

1) CC[C@H]1OC(=O)[C@H](C)C(=O)[C@H](C)[C@@H](O[C@@H]2O[C@H](C)C[C@H](N(C)C)[C@H]2O)[C@](C)(OCCNCCCc2ccccc2)C[C@@H](C)C(=O)[C@H](C)[C@H]2NC(=O)O[C@@]21C 16
2) CC[C@H]1OC(=O)[C@H](C)C(=O)[C@H](C)[C@@H](O[C@@H]2O[C@H](C)C[C@H](N(C)C)[C@H]2O)[C@](C)(OCCNCc2cnc3ccccc3c2)C[C@@H](C)C(=O)[C@H](C)[C@H]2NC(=O)O[C@@]21C 4
3) CC[C@H]1OC(=O)[C@H](C)[C@@H](O[C@H]2C[C@@](C)(OC)[C@@H](O)[C@H](C)O2)[C@H](C)[C@@H](O[C@@H]2O[C@H](C)C[C@H](N(C)C)[C@H]2O)[C@](C)(OC/C=C/c2cnc3ccccc3c2)C[C@@H](C)C(=O)[C@H](C)[C@H]2NC(=O)O[C@@]21C 8
4) CC[C@H]1OC(=O)[C@H](C)C(=O)[C@H](C)[C@@H](O[C@@H]2O[C@H](C)C[C@H](N(C)C)[C@H]2O)[C@](C)(OC/C=C/c2ccc(Cl)cc2)C[C@@H](C)C(=O)[C@H](C)[C@@H](O)[C@]1(C)O 32
5) CC[C@H]1OC(=O)[C@H](C)C(=O)[C@H](C)[C@@H](O[C@@H]2O[C@H](C)C[C@H](N(C)C)[C@H]2O)[C@](C)(OCCNCCCc2cnc3ccccc3c2)C[C@@H](C)C(=O)[C@H](C)[C@H]2NC(=O)O[C@@]21C 2
6) CC[C@H]1OC(=O)[C@H](C)C(=O)[C@H](C)[C@@H](O[C@@H]2O[C@H](C)C[C@H](N(C)C)[C@H]2O)[C@](C)(OC/C=C/c2ccc3cccnc3c2)C[C@@H](C)C(=O)[C@H](C)[C@H]2NC(=O)O[C@@]21C 4
